- System: gluten-reactive T cells
- test protocol: 96-well plate whole blood cytokine release, IFNγ by MAGPIX multiplex bead assay
- Type: cell-based, human
- condition details: Subject 6; after oral gluten challenge; Max. 72 pg/mL
Non-standard residues stand in square brackets, D forms with d. pGlu = O=C1CC[C@@H](C(=O)O)N1
property name: Percent of maximal response to individual gluten peptides, IFNg

Please review the entries below; each comes with its answer.
[
  {
    "substance": "(pE)SGEGSFQPSQENPQ-amide ([pGlu]SGEGSFQPSQENPQ-NH2; SMILES NC(=O)CC[C@H](NC(=O)[C@@H]1CCCN1C(=O)[C@H](CC(N)=O)NC(=O)[C@H](CCC(=O)O)NC(=O)[C@H](CCC(N)=O)NC(=O)[C@H](CO)NC(=O)[C@@H]1CCCN1C(=O)[C@H](CCC(N)=O)NC(=O)[C@H](Cc1ccccc1)NC(=O)[C@H](CO)NC(=O)CNC(=O)[C@H](CCC(=O)O)NC(=O)CNC(=O)[C@H](CO)NC(=O)[C@@H]1CCC(=O)N1)C(N)=O) [Peptide 9]",
    "target under test": "gluten-reactive T cells",
    "test result": "0 % of max"
  },
  {
    "substance": "(pE)QPFPQPELPYPYPQ-amide ([pGlu]QPFPQPELPYPYPQ-NH2; SMILES CC(C)C[C@H](NC(=O)[C@H](CCC(=O)O)NC(=O)[C@@H]1CCCN1C(=O)[C@H](CCC(N)=O)NC(=O)[C@@H]1CCCN1C(=O)[C@H](Cc1ccccc1)NC(=O)[C@@H]1CCCN1C(=O)[C@H](CCC(N)=O)NC(=O)[C@@H]1CCC(=O)N1)C(=O)N1CCC[C@H]1C(=O)N[C@@H](Cc1ccc(O)cc1)C(=O)N1CCC[C@H]1C(=O)N[C@@H](Cc1ccc(O)cc1)C(=O)N1CCC[C@H]1C(=O)N[C@@H](CCC(N)=O)C(N)=O) [Peptide 16]",
    "target under test": "gluten-reactive T cells",
    "test result": "10 % of max"
  },
  {
    "substance": "(pE)PEQPIPEQPQPYPQQ-amide ([pGlu]PEQPIPEQPQPYPQQ-NH2; SMILES CC[C@H](C)[C@H](NC(=O)[C@@H]1CCCN1C(=O)[C@H](CCC(N)=O)NC(=O)[C@H](CCC(=O)O)NC(=O)[C@@H]1CCCN1C(=O)[C@@H]1CCC(=O)N1)C(=O)N1CCC[C@H]1C(=O)N[C@@H](CCC(=O)O)C(=O)N[C@@H](CCC(N)=O)C(=O)N1CCC[C@H]1C(=O)N[C@@H](CCC(N)=O)C(=O)N1CCC[C@H]1C(=O)N[C@@H](Cc1ccc(O)cc1)C(=O)N1CCC[C@H]1C(=O)N[C@@H](CCC(N)=O)C(=O)N[C@@H](CCC(N)=O)C(N)=O) [Peptide 3]",
    "target under test": "gluten-reactive T cells",
    "test result": "63 % of max"
  }
]

Task: Look up Percent of maximal response to individual gluten peptides, IFNg: (pE)QPFPEQPEQIIPQQP-amide ([pGlu]QPFPEQPEQIIPQQP-NH2; SMILES CC[C@H](C)[C@H](NC(=O)[C@H](CCC(N)=O)NC(=O)[C@H](CCC(=O)O)NC(=O)[C@@H]1CCCN1C(=O)[C@H](CCC(N)=O)NC(=O)[C@H](CCC(=O)O)NC(=O)[C@@H]1CCCN1C(=O)[C@H](Cc1ccccc1)NC(=O)[C@@H]1CCCN1C(=O)[C@H](CCC(N)=O)NC(=O)[C@@H]1CCC(=O)N1)C(=O)N[C@H](C(=O)N1CCC[C@H]1C(=O)N[C@@H](CCC(N)=O)C(=O)N[C@@H](CCC(N)=O)C(=O)N1CCC[C@H]1C(N)=O)[C@@H](C)CC) [Peptide 12]
Result: 0 % of max

Task: What Percent of maximal response to individual gluten peptides, IFNg value was documented for this substance, (pE)PQPYPEQPQPFPQQ-amide ([pGlu]PQPYPEQPQPFPQQ-NH2; SMILES NC(=O)CC[C@H](NC(=O)[C@H](CCC(N)=O)NC(=O)[C@@H]1CCCN1C(=O)[C@H](Cc1ccccc1)NC(=O)[C@@H]1CCCN1C(=O)[C@H](CCC(N)=O)NC(=O)[C@@H]1CCCN1C(=O)[C@H](CCC(N)=O)NC(=O)[C@H](CCC(=O)O)NC(=O)[C@@H]1CCCN1C(=O)[C@H](Cc1ccc(O)cc1)NC(=O)[C@@H]1CCCN1C(=O)[C@H](CCC(N)=O)NC(=O)[C@@H]1CCCN1C(=O)[C@@H]1CCC(=O)N1)C(N)=O) [Peptide 8] ?
Result: 6 % of max

Task: Query (substance): (pE)PEQPEQPFPEQPQQ-amide ([pGlu]PEQPEQPFPEQPQQ-NH2; SMILES NC(=O)CC[C@H](NC(=O)[C@H](CCC(N)=O)NC(=O)[C@@H]1CCCN1C(=O)[C@H](CCC(N)=O)NC(=O)[C@H](CCC(=O)O)NC(=O)[C@@H]1CCCN1C(=O)[C@H](Cc1ccccc1)NC(=O)[C@@H]1CCCN1C(=O)[C@H](CCC(N)=O)NC(=O)[C@H](CCC(=O)O)NC(=O)[C@@H]1CCCN1C(=O)[C@H](CCC(N)=O)NC(=O)[C@H](CCC(=O)O)NC(=O)[C@@H]1CCCN1C(=O)[C@@H]1CCC(=O)N1)C(N)=O) [Peptide 11] ; field requested: Percent of maximal response to individual gluten peptides, IFNg
Result: 0 % of max

----------
- Test system: gluten-reactive T cells
- test protocol: 96-well plate whole blood cytokine release, IP-10 by MAGPIX multiplex bead assay
- Type: cell-based, human
- condition details: Subject 10; after oral gluten challenge; Max. 8922 pg/mL
Non-standard residues stand in square brackets, D forms with d. pGlu = O=C1CC[C@@H](C(=O)O)N1
property name: Percent of maximal response to individual gluten peptides, IP-10

[
  {
    "substance": "(pE)GQQGYYPTSPQQSG-amide ([pGlu]GQQGYYPTSPQQSG-NH2; SMILES C[C@@H](O)[C@H](NC(=O)[C@@H]1CCCN1C(=O)[C@H](Cc1ccc(O)cc1)NC(=O)[C@H](Cc1ccc(O)cc1)NC(=O)CNC(=O)[C@H](CCC(N)=O)NC(=O)[C@H](CCC(N)=O)NC(=O)CNC(=O)[C@@H]1CCC(=O)N1)C(=O)N[C@@H](CO)C(=O)N1CCC[C@H]1C(=O)N[C@@H](CCC(N)=O)C(=O)N[C@@H](CCC(N)=O)C(=O)N[C@@H](CO)C(=O)NCC(N)=O) [Peptide 10]",
    "test result": "9 % of max"
  }
]

Task: Quick check: Percent of maximal response to individual gluten peptides, IP-10 of (pE)LQPFPQPELPYPQPQ-amide ([pGlu]LQPFPQPELPYPQPQ-NH2; SMILES CC(C)C[C@H](NC(=O)[C@@H]1CCC(=O)N1)C(=O)N[C@@H](CCC(N)=O)C(=O)N1CCC[C@H]1C(=O)N[C@@H](Cc1ccccc1)C(=O)N1CCC[C@H]1C(=O)N[C@@H](CCC(N)=O)C(=O)N1CCC[C@H]1C(=O)N[C@@H](CCC(=O)O)C(=O)N[C@@H](CC(C)C)C(=O)N1CCC[C@H]1C(=O)N[C@@H](Cc1ccc(O)cc1)C(=O)N1CCC[C@H]1C(=O)N[C@@H](CCC(N)=O)C(=O)N1CCC[C@H]1C(=O)N[C@@H](CCC(N)=O)C(N)=O) [Peptide 1] ?
Result: 34 % of max

----------
- Test system: gluten-reactive T cells
- test protocol: 96-well plate whole blood cytokine release, IP-10 by MAGPIX multiplex bead assay
- Assay type: cell-based, human
- condition details: Subject 5; after oral gluten challenge; Max. 9336 pg/mL
Non-standard residues stand in square brackets, D forms with d. pGlu = O=C1CC[C@@H](C(=O)O)N1
property name: Percent of maximal response to individual gluten peptides, IP-10

[
  {
    "substance": "(pE)SGEGSFQPSQENPQ-amide ([pGlu]SGEGSFQPSQENPQ-NH2; SMILES NC(=O)CC[C@H](NC(=O)[C@@H]1CCCN1C(=O)[C@H](CC(N)=O)NC(=O)[C@H](CCC(=O)O)NC(=O)[C@H](CCC(N)=O)NC(=O)[C@H](CO)NC(=O)[C@@H]1CCCN1C(=O)[C@H](CCC(N)=O)NC(=O)[C@H](Cc1ccccc1)NC(=O)[C@H](CO)NC(=O)CNC(=O)[C@H](CCC(=O)O)NC(=O)CNC(=O)[C@H](CO)NC(=O)[C@@H]1CCC(=O)N1)C(N)=O) [Peptide 9]",
    "test result": "0 % of max"
  }
]

Task: State the recorded Percent of maximal response to individual gluten peptides, IP-10 for this entry: (pE)LQPFPQPELPYPQPQ-amide ([pGlu]LQPFPQPELPYPQPQ-NH2; SMILES CC(C)C[C@H](NC(=O)[C@@H]1CCC(=O)N1)C(=O)N[C@@H](CCC(N)=O)C(=O)N1CCC[C@H]1C(=O)N[C@@H](Cc1ccccc1)C(=O)N1CCC[C@H]1C(=O)N[C@@H](CCC(N)=O)C(=O)N1CCC[C@H]1C(=O)N[C@@H](CCC(=O)O)C(=O)N[C@@H](CC(C)C)C(=O)N1CCC[C@H]1C(=O)N[C@@H](Cc1ccc(O)cc1)C(=O)N1CCC[C@H]1C(=O)N[C@@H](CCC(N)=O)C(=O)N1CCC[C@H]1C(=O)N[C@@H](CCC(N)=O)C(N)=O) [Peptide 1]
Result: 14 % of max
